# OD450 listing for each entry below
Biological target: T1, human MSLN-R3-3 polypeptide (human)
T1 construct: also called human MSLN-R3-3 protein; hMSLN-R3-3
Assay: ELISA on coated antigen, no antibody (column none)
The figure you give is taken to be in OD450; do not add the unit.

Here are 8 binders together with their reported answers.
Field request: OD450 | item: S009-F2.16.10 (antibody, human IgG1, kappa, V domains shown, Human-murine chimeric antibody: murine VH/VL on human IgG1 heavy and kappa light constant regions) VH: QVQLQQPGAELIKPGASVKLSCKASGYTFTSYWMHWVKQRPGQGLEWIGIIHPNIGSTNYNERFKSKATLTVDKSSSTAYMQLSSLTSEDSAVYYCARRSSNYGDWYFDVWGTGTTVTVSS VL: DIVMTQSHRFMSTSVGDRVSITCKASQDVGTSVAWYQQKPGQSPKLLIYWASTQHTGVPDRFTGSGSGTDFTLTINNVQSEDLLDYFCQQYSSYPLTFGAGTKLELKR 0.05

What do you get for S009-F2.38.12 (antibody, human IgG1, kappa, V domains shown, Human-murine chimeric antibody: murine VH/VL on human IgG1 heavy and kappa light constant regions) VH: QVQLQQPGTELVKPGASVKLSCKASGYTFTSYWMHWVKQRPGQGLEWIGNINPSNGGTNYNEKIKNKATLTVDKSSSTAYMQLSSLTSEDSAVYYCARWNYYGNYPFDYWGQGTTLTVSS VL: DIVMTQSQKFMSTTVGDRVSITCKASQNVGTAVAWYQQKPGQSPKLLIYSASNRYTGVPDRFTGSGSGTDFTLTISNMQSEDLADYFCQQYSSYPLTFGAGTKLELKR ? 0.05

What about this binder? S009-F2.39.3 (antibody, human IgG1, kappa, V domains shown, Human-murine chimeric antibody: murine VH/VL on human IgG1 heavy and kappa light constant regions) VH: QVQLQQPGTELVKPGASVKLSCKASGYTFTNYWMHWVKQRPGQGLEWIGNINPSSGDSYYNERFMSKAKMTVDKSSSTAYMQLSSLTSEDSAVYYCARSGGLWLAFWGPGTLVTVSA VL: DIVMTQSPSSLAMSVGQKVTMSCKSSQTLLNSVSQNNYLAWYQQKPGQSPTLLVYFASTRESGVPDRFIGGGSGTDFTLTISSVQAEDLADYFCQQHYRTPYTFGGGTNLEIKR 0.05

One more binder: S009-F2.13.3 (antibody, human IgG1, kappa, V domains shown, Human-murine chimeric antibody: murine VH/VL on human IgG1 heavy and kappa light constant regions) VH: QVQLQQSGAELMKPGASVKLSCKATGYTFTGYWIEWVKQRPGHGLEWIGEILPGSGSTNYNEKFKGKATFTADTSSNTAYMQLSSLTTEDSAIYYCARAGAWFAYWGQGTLVTVSA VL: QIVLTQSPAIMSASLGERVTMTCTASSSVSSSYLHWYQQKPGSSPKLWTYSTSNLASGVPARFSGSGSGTSYSLTISSMEAEDAATYYCHQYHRSPWTFGGGTKLEIKR 0.05

Next entry: S009-F2.23.12 (antibody, human IgG1, kappa, V domains shown, Human-murine chimeric antibody: murine VH/VL on human IgG1 heavy and kappa light constant regions) VH: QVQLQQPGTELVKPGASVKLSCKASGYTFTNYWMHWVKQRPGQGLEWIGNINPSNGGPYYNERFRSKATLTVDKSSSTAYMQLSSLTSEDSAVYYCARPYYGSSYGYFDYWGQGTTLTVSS VL: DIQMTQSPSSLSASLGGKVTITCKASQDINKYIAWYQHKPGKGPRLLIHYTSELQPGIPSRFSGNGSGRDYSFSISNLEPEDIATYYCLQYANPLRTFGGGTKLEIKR 0.05

Same read-out for S009-F2.47.1 (antibody, human IgG1, kappa, V domains shown, Human-murine chimeric antibody: murine VH/VL on human IgG1 heavy and kappa light constant regions) VH: QVQLQQPGAELVKPGASVKLSCKASGYTFTSYWMHWVKQRPGQGLEWIGMIHPNSGSTNYNEKFKSKATLTVDKSSSTAYMQLSSLTSEDSAVYYCARPVVPYWYFDVWGTGTTVTVSS VL: DIVMTQSQKFMSTTVGDRVSITCKASQNVGTAVAWYQQKPGQSPKLLIYSASNRYTGVPDRFTGSGSGTDFTLTISNMQSEDLADYFCQQSSSYPLTFGAGTKLELKR ? 0.06

Here is the next binder: S009-F2.58.8 (antibody, human IgG1, kappa, V domains shown, Human-murine chimeric antibody: murine VH/VL on human IgG1 heavy and kappa light constant regions) VH: QVQLLQSGAELAKPGASVKLSCKASGYTFTSYWVHWVKQRPGQGLEWIGYINPNSGYTKYNQKFKDKATLTADKSSSTAYMQLSSLTYEDSAVYYCADHYYGSSRDYFDYWGQGTTLTVSS VL: QIVLTQSPAIMSASPGEKVTMTCSASSSVSYMYWYQQRPGSSPRLLIYDTSNLASGVPVRFSGSGSGTSYSLTISRMEAEDAATYYCQQWNSYPYTFGGGTKLEIKR 0.06

Would you kindly repeat that for S009-F2-56.12 (antibody, human IgG1, kappa, V domains shown, Human-murine chimeric antibody: murine VH/VL on human IgG1 heavy and kappa light constant regions) VH: DVQLQESGPGMVKPSQSLSLTCTVTGYSITSGYDWHWIRHFPGNKLEWMGYISYSGSTNYNPSLKSRISITHDTSKNHFFLKLKSVTTEDTATYYCARGTGPDYWGQGTTLTVSS VL: DIVMTQSQKFMSTSVGDRVSITCKASQNVRTAVAWYQQKPGQSPKALIHLPSNRHTGVPDRFTGSGSGTDFTLTISNVQSEDLADYFCLQHWNYPLTFGGGTKLEIKR ? 0.07

Lab note: next binder to report on.
What does the data say about its OD450? Entry: S009-F2.21.4 (antibody, human IgG1, kappa, V domains shown, Human-murine chimeric antibody: murine VH/VL on human IgG1 heavy and kappa light constant regions) VH: EVQLQQSGPELVKPGASVKIPCKASGYTFTDYNMDWVKQSHGKSLEWIGDINPNNGGSIYNQRFKGKATLTVDKSSSTAYMELRSLTSEDSAVYYCARRAYYSTGYFDVWGTGTTVTVSS VL: QIVLTQSPALMSASPGEKVTITCSASSSISYMHWFQQKPGTSPKLWIYSTSTLASGVPARFSGSGSGTSYSLTISRMEAEDTATYYCQQRSSYPPTFGGGTKLEIKR 0.05

src = patent US20250250357A1
